These measurements were taken from the RepoRT retention time repository (doi:10.1016/j.aca.2011.12.065).

Assay: RP, Waters ACQUITY UPLC BEH C18, 100 × 2.1 mm, 1.7 µm; A: water + 0.1% formic acid, pH 3; B: 80% acetonitrile + 20% acetone + 0.1% formic acid, pH 3; gradient (min/%B) 0/0 6/100
Conditions: stereoisomer not certain
Parameter threshold = 2 min. Response is true (1) when LC retention time meets or exceeds it, else false (0).

Inquiry: Determine whether measured LC retention time meets or exceeds 2 min for CCCCCCCCCCCCCCCCC=COCC(O)COP(=O)([O-])OCC[N+](C)(C)C (centres undefined)
Reply text: true (1)

Inquiry: Determine whether measured LC retention time meets or exceeds 2 min for CCC(C)C1NC(=O)C(CC(=O)O)NC1=O (centres undefined) [Cyclic(asp-ile)]
Reply text: false (0)

Inquiry: Determine whether measured LC retention time meets or exceeds 2 min for CC(C(=O)O)C(=O)O [Methylmalonic acid]
Reply text: false (0)

Inquiry: Determine whether measured LC retention time meets or exceeds 2 min for COC1=C(OC)C(=O)C(CC=C(C)C)=C(C)C1=O [coenzyme q1]
Reply text: true (1)

Inquiry: Determine whether measured LC retention time meets or exceeds 2 min for CCCCCCCCCCCC(=O)N(C)CC(=O)O [n-lauroylsarcosine]
Reply text: true (1)

Inquiry: Determine whether measured LC retention time meets or exceeds 2 min for O=C1CCC(C(=O)O)N1 (centres undefined) [Pyroglutamic acid]
Reply text: false (0)

Inquiry: Determine whether measured LC retention time meets or exceeds 2 min for CC(NCCCCC(N)C(=O)O)C(=O)O (centres undefined) [CEL]
Reply text: false (0)

Inquiry: Determine whether measured LC retention time meets or exceeds 2 min for O=C(O)c1ccc2ccccc2n1 [quinaldic acid]
Reply text: false (0)

Now consider a different compound.
Inquiry: Determine whether measured LC retention time meets or exceeds 2 min for CC(CCC(=O)O)C1CCC2C3C(O)CC4CC(O)CCC4(C)C3CC(O)C12C (centres undefined) [Cholic acid]
Reply text: true (1)

----------
Assay: RP, Waters ACQUITY UPLC HSS T3, 100 × 2.1 mm, 1.8 µm; A: water + 0.1% formic acid, pH 3; B: 30% methanol + 70% acetonitrile + 0.1% formic acid, pH 3; gradient (min/%B) 0.0/5 1.0/8 2.0/15 3.0/40 4.0/70 4.5/100 5.0/100 6.4/100 6.6/5.0 6.8/5.0 7.0/5.0
Conditions: stereoisomer not certain
Can you tell me LC retention time for the items I'm about to list?
One number for each entry, in min.

Look over these answered cases.
Inquiry: LC retention time lookup needed for CC1NC(=NCCCC(N)C(=O)O)NC1=O (centres undefined) , thanks.
Reply text: 0.484

Inquiry: LC retention time lookup needed for O=C(O)C(O)c1ccc(O)c(O)c1 (centres undefined) [dihydroxymandelic acid] , thanks.
Reply text: 0.829

Inquiry: LC retention time lookup needed for Cn1c(=O)[nH]c(=O)c2[nH]cnc21 , thanks.
Reply text: 1.45

Now for another entry.
Inquiry: LC retention time lookup needed for CC12CCC(=O)C=C1CCC1C2C(O)CC2(C)C1CCC2(O)C(=O)CO (centres undefined) [hydrocortisone, cortisol] , thanks.
Reply text: 3.87
